Origin of the recorded values: patent US11466006B2

Target: PI3K gamma (Mus musculus)
Construct: endogenous in cells
Sequence (Q9JHG7 whole entry): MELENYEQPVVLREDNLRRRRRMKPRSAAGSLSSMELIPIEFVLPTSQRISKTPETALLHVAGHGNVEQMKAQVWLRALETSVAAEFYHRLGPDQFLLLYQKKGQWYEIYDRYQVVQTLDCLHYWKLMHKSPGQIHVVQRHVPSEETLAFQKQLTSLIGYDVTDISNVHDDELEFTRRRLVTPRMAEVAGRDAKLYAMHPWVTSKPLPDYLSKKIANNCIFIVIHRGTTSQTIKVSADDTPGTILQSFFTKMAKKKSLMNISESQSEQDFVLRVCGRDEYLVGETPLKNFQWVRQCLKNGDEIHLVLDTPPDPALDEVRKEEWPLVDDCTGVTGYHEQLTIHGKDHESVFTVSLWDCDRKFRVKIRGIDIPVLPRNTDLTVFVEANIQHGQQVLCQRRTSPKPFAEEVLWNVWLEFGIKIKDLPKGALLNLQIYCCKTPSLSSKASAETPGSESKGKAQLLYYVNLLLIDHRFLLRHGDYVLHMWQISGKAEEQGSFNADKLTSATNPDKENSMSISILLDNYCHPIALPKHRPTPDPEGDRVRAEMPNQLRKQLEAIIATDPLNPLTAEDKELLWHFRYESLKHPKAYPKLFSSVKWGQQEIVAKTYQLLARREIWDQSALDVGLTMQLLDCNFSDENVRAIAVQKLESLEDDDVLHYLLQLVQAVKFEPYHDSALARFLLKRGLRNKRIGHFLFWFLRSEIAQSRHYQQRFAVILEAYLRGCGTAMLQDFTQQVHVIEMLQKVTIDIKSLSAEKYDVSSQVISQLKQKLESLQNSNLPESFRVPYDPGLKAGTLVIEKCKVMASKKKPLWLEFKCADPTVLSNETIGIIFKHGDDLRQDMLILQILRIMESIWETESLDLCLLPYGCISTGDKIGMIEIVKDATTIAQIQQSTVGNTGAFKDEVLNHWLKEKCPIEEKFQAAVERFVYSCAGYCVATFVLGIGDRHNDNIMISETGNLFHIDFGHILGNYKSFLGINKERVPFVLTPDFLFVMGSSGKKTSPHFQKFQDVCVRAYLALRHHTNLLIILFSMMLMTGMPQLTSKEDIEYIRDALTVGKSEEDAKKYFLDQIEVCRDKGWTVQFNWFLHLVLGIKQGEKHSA
Experiment: c5a induced AktS473 phosphorylation in RAW 264.7 macrophages (PI3Kγ selectivity)
Details: read-out: Cellular IC50 PI3K gamma (c5a induced pAKT in RAW macrophages)
ATTRIBUTE_MEASURED: IC50 (nM)
Write the answer as a number in nM, unit excluded.

// query Given CC[C@H](Nc1ncnc2[nH]cnc12)c1oc2ccccc2c(=O)c1-c1cccc(F)c1 , state its recorded IC50.
// result 22.3

---

Molecular target: PI3K delta (Homo sapiens, UniProt O00329)
Construct: Isolated B-cells were re-suspended to 1.0×10^6 cells per ml; endogenous in cells; host or cells: isolated human B cells
Sequence (O00329 whole entry, one chain of several): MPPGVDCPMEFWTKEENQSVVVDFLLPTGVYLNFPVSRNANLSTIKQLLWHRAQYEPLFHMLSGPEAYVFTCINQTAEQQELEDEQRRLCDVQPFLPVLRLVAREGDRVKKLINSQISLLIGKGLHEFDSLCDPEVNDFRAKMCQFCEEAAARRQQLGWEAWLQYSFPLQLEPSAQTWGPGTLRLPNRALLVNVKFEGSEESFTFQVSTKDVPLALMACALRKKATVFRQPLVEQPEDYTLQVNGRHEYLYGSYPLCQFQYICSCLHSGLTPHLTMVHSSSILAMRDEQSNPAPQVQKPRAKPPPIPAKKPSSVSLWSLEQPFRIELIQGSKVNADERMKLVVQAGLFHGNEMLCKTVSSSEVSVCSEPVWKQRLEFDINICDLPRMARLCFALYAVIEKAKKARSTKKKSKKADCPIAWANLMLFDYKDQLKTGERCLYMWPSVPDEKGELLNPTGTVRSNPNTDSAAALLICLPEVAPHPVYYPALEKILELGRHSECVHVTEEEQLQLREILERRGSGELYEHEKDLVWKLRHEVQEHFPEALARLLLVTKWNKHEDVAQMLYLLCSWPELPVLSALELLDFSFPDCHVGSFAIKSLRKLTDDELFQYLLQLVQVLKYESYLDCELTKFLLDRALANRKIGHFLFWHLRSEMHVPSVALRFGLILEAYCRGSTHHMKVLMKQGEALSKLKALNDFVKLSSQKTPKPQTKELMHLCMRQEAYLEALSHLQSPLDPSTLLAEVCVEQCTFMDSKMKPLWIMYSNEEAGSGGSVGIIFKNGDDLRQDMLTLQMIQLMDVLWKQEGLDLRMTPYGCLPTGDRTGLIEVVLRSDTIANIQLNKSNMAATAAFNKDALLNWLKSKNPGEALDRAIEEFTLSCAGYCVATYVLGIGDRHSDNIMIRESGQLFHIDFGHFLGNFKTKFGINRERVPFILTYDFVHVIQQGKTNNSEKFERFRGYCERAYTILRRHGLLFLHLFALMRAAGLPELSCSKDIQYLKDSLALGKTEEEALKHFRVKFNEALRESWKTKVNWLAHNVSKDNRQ
Assay: Anti-IgM induced B-cell proliferation (PI3Kδ selectivity)
Type: cell-based
Details: read-out: Cellular IC50 PI3K delta (anti-IgM induced human B-cell proliferation)
ATTRIBUTE_MEASURED: IC50 (µM)
Write the answer as a number in µM, unit excluded.

// query Given CC[C@H](Nc1ncnc2[nH]cnc12)c1oc2ccccc2c(=O)c1-c1cccc(F)c1 [Compound A1] , state its recorded IC50.
// result 0.0381

---

Biological target: Pi3K β (Homo sapiens)
Construct: purchased Millipore (assay kit)
Sequence (P42338 whole entry): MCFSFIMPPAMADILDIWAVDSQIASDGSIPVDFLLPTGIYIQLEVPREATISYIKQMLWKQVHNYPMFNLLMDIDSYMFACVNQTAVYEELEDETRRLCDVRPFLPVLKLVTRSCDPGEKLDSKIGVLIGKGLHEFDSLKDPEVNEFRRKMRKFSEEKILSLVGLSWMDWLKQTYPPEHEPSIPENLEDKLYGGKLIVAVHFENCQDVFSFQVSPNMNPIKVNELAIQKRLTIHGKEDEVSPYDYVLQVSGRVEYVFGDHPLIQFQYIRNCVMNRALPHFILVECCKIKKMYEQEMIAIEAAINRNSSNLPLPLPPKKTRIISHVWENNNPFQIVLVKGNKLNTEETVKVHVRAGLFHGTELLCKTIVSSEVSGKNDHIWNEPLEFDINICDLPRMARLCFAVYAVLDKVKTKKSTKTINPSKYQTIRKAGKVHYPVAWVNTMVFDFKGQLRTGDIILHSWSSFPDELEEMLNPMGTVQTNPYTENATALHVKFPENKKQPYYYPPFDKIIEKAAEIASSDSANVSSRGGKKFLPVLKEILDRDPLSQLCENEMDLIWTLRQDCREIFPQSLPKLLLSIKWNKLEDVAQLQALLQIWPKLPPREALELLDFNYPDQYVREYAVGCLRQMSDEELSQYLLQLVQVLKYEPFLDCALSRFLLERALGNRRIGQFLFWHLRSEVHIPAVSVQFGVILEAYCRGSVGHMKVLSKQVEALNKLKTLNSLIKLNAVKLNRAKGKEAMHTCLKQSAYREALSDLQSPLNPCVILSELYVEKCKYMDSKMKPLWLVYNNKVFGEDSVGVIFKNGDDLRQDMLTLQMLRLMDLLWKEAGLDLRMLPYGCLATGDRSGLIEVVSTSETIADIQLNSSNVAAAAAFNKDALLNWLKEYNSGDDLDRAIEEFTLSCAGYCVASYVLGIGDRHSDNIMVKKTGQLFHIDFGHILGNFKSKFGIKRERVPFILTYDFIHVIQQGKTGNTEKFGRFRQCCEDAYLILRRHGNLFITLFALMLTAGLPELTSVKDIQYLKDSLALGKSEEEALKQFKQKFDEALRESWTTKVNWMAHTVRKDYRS
Sequence (P27986 whole entry partner): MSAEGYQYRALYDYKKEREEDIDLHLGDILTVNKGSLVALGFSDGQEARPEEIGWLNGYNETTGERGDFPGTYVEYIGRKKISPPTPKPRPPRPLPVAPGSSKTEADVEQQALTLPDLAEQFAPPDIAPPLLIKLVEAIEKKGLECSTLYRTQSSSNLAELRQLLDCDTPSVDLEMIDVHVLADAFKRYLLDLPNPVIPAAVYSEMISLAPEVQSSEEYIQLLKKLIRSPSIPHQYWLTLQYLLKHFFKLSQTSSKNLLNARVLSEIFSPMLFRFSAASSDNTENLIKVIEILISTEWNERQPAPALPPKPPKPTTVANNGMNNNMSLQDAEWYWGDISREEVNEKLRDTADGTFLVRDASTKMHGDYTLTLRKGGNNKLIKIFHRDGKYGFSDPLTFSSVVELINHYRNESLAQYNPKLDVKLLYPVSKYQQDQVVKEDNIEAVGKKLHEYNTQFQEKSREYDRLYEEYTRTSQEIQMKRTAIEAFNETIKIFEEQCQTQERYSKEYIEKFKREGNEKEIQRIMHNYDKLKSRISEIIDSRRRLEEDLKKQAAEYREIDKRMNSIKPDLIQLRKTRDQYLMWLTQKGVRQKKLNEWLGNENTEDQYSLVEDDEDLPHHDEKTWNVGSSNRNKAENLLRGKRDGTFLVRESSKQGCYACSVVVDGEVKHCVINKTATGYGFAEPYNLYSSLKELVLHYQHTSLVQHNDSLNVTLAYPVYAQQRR
Assay: Fluorescent (HTRF) determination of PI3 kinase enzyme activity, beta isoform
Assay type: biochemical
Conditions: Table 1, HTRF
ATTRIBUTE_MEASURED: IC50

// query Given CC[C@H](Nc1ncnc2[nH]cnc12)c1oc2ccccc2c(=O)c1-c1cccc(F)c1 [Compound A1] , state its recorded IC50.
// result > 4000 nM

---

Target: Pi3K γ (Homo sapiens)
Sequence (P48736 whole entry, canonical isoform): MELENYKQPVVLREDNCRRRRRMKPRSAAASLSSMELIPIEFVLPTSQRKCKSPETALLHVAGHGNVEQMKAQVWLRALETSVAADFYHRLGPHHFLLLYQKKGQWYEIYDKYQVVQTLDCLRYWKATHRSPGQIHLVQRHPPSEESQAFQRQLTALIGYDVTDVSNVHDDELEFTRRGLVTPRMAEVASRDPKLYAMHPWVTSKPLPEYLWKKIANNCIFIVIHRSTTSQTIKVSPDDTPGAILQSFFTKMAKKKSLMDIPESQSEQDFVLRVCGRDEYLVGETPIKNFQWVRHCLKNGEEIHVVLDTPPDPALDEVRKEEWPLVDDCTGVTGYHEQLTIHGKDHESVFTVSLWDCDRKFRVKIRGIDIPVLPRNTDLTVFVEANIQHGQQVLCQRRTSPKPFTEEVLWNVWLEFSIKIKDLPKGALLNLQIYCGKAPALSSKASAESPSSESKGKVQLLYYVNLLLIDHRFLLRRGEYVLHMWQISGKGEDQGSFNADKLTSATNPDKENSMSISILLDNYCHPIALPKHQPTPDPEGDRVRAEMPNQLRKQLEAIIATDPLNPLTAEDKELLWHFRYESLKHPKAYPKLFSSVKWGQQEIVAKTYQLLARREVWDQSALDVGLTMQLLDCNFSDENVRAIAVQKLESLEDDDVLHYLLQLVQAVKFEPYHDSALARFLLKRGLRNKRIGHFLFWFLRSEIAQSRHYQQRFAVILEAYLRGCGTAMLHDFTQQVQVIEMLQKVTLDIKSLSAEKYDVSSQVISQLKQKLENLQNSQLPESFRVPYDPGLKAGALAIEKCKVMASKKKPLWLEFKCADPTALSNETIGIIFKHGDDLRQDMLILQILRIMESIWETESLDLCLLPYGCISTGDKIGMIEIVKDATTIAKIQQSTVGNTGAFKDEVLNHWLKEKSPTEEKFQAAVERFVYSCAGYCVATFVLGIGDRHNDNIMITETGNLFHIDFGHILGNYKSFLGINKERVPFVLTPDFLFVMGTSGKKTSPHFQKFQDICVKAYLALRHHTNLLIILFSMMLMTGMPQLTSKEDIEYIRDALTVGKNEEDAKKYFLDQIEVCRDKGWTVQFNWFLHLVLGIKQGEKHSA
Assay: Fluorescent (HTRF) determination of PI3 kinase enzyme activity, gamma isoform
Assay type: biochemical
Parameters: purchased Millipore (assay kit)
Settings: Table 1, HTRF; read-out: IC50 (nM) Pi3K γ
ATTRIBUTE_MEASURED: IC50 (nM)
Write the answer as a number in nM, unit excluded.

// query Given CC[C@H](Nc1ncnc2[nH]cnc12)c1oc2ccccc2c(=O)c1-c1cccc(F)c1 , state its recorded IC50.
// result 24.1
